- Tested on: Mycosphaerella graminicola; Anamorph: Septoria tritici; Bayer Code SEPTTR
- procedure-text: Leaf blotch of wheat, foliar fungicide treatment, one day protectant (1DP) or three day curative (3DC)
- Format: in vivo, Septoria tritici on wheat plants (variety Yuma)
- measurement-context: Zymoseptoria tritici, 72 h, three day curative (3DC), 25 ppm, percent control rating, read-out: SEPTTR 3DC 25 ppm
reported-property: pest or weed control at 25 ppm

Answered cases to consult:
{"chemical-string": "N=C(NO)Nc1nc(OCc2ccccc2)ncc1F", "test-system": "Mycosphaerella graminicola; Anamorph: Septoria tritici; Bayer Code SEPTTR", "observed": "0 to 25%"}
{"chemical-string": "CC(C)(C)C(=O)OCOc1ncc(F)c(NC=O)n1", "test-system": "Mycosphaerella graminicola; Anamorph: Septoria tritici; Bayer Code SEPTTR", "observed": "76 to 100%"}
{"chemical-string": "COc1ncc(F)c(NNc2ccccc2OC)n1", "test-system": "Mycosphaerella graminicola; Anamorph: Septoria tritici; Bayer Code SEPTTR", "observed": "0 to 25%"}
{"chemical-string": "C=CCOc1ncc(F)c(NNc2ccc(Br)cc2)n1", "test-system": "Mycosphaerella graminicola; Anamorph: Septoria tritici; Bayer Code SEPTTR", "observed": "26 to 50%"}
{"chemical-string": "NN(Cc1ccccc1)c1nc(O)ncc1F", "test-system": "Mycosphaerella graminicola; Anamorph: Septoria tritici; Bayer Code SEPTTR", "observed": "0 to 25%"}

Would you mind giving pest or weed control at 25 ppm for every molecule in the list below?
1. O=S(=O)(Nc1nc(O)ncc1F)c1ccccc1
2. N#CNc1nc(OCc2ccccc2)ncc1F
3. C=CCOC(=O)Nc1nc(OCc2cccc(OC)c2)ncc1F
4. COc1ncc(F)c(NNc2ncnc3ccccc23)n1
5. C/C(=N\Oc1ncc(F)c(N)n1)C(F)(F)F
6. C=CCOc1ncc(F)c(/N=N/c2ccccc2F)n1
7. Cc1ccc(COc2ncc(F)c(NS(=O)(=O)c3ccc(C)cc3)n2)cc1

Result:
0 to 25%
26 to 50%
51 to 75%
26 to 50%
26 to 50%
0 to 25%
0 to 25%

----------
- Test system: Mycosphaerella graminicola; Anamorph: Septoria tritici; Bayer Code SEPTTR
- procedure-text: Leaf blotch of wheat, foliar fungicide treatment, one day protectant (1DP) or three day curative (3DC)
- Type: in vivo, Septoria tritici on wheat plants (variety Yuma)
- measurement-context: Zymoseptoria tritici, 24 h, one day protectant (1DP), 25 ppm, rating of percent disease control, read-out: SETTTR 1DP 25 ppm
For each entry below, report its pest or weed control at 25 ppm value.

{"compound": "O=C(Nc1nc(OCc2ccc(F)cc2)ncc1F)c1cccc2nnsc12", "observed": "76 to 100%"}
{"compound": "Cc1ccc(COc2ncc(F)c(NO)n2)cc1", "observed": "76 to 100%"}

Go through the items and report each one's pest or weed control at 25 ppm.
1. COc1ccc(Oc2ncc(F)c(/N=C/N(C)C)n2)cc1
2. Nc1nc(OCc2cccc(O)c2)ncc1F
3. COc1ccc(CCCOc2ncc(F)c(N)n2)cc1
4. Cc1ccc(COc2ncc(F)c(NN)n2)cc1
5. CC(Oc1ncc(F)c(N)n1)c1c(F)c(F)c(F)c(F)c1F (stereo not drawn)
6. Nc1nc(OCc2ccc(O)cc2)ncc1F
7. CCCNC(=O)Nc1nc(OCc2ccc(C)cc2)ncc1F
8. CCCNC(=S)Nc1nc(OCc2ccccc2OC)ncc1F

Result:
1. 0 to 25%
2. 0 to 25%
3. 51 to 75%
4. 26 to 50%
5. 0 to 25%
6. 0 to 25%
7. 0 to 25%
8. 51 to 75%

Please look at the items below and tell me pest or weed control at 25 ppm for each one, in order.
1. CCCCOc1ccc(COc2ncc(F)c(N)n2)cc1
2. COc1ccccc1COc1ncc(F)c(NC(=O)OCc2ccccc2)n1
3. Cc1ccc(COc2ncc(F)c(NC(=O)Nc3ccccc3F)n2)cc1
4. Nc1nc(COc2ccc(COc3ncc(F)c(N)n3)cc2)ncc1F
5. CCC(C)C(Oc1ncc(F)c(N)n1)c1ccc(F)cc1 (stereo not drawn)
6. Nc1nc(OCCOc2ccccc2)ncc1F
7. Oc1ncc(F)c(N/N=C/c2ccccc2Cl)n1
8. NN(c1ccccc1)c1nc(OCc2ccccc2)ncc1F

Result:
1: 76 to 100%; 2: 51 to 75%; 3: 0 to 25%; 4: 51 to 75%; 5: 76 to 100%; 6: 0 to 25%; 7: 0 to 25%; 8: 0 to 25%

----------
- Test system: Mycosphaerella graminicola; Anamorph: Septoria tritici; Bayer Code SEPTTR
- procedure-text: Leaf blotch of wheat, foliar fungicide treatment, one day protectant (1DP) or three day curative (3DC)
- Type: in vivo, Septoria tritici on wheat plants (variety Yuma)
- measurement-context: Zymoseptoria tritici, 72 h, three day curative (3DC), 25 ppm, percent control rating, read-out: SEPTTR 3DC 25 ppm
Record form. Attribute: pest or weed control at 25 ppm. Fill in for each entry.

{"molecule": "COc1ncc(F)c(NNc2c(Cl)cccc2Cl)n1", "test-system": "Mycosphaerella graminicola; Anamorph: Septoria tritici; Bayer Code SEPTTR", "observed": "0 to 25%"}
{"molecule": "COc1ccccc1NNc1nc(OCc2ccc(C)cc2)ncc1F", "test-system": "Mycosphaerella graminicola; Anamorph: Septoria tritici; Bayer Code SEPTTR", "observed": "26 to 50%"}
{"molecule": "CC(C)S(=O)(=O)Nc1nc(OCc2ccc(F)cc2)ncc1F", "test-system": "Mycosphaerella graminicola; Anamorph: Septoria tritici; Bayer Code SEPTTR", "observed": "0 to 25%"}
{"molecule": "CNN(C)c1nc(OC)ncc1F", "test-system": "Mycosphaerella graminicola; Anamorph: Septoria tritici; Bayer Code SEPTTR", "observed": "26 to 50%"}

Proceeding to the next molecule to report its pest or weed control at 25 ppm.
Problem: Please report the recorded pest or weed control at 25 ppm for CCC(C)/C(C)=N/Nc1nc(OC)ncc1F (centres unmarked) .
Result: 0 to 25%

----------
- Tested on: Mycosphaerella graminicola; Anamorph: Septoria tritici; Bayer Code SEPTTR
- procedure-text: Leaf blotch of wheat, foliar fungicide treatment, one day protectant (1DP) or three day curative (3DC)
- Type: in vivo, Septoria tritici on wheat plants (variety Yuma)
- measurement-context: Zymoseptoria tritici, 24 h, one day protectant (1DP), 25 ppm, rating of percent disease control, read-out: SETTTR 1DP 25 ppm
reported-property: pest or weed control at 25 ppm

Study these solved cases before continuing.
{"molecule": "CCOC(CC)Nc1nc(OCc2ccc(F)cc2)ncc1F (stereo not shown)", "pest or weed control at 25 ppm": "76 to 100%"}
{"molecule": "Nc1nc(OCc2cccc(F)c2)ncc1F", "pest or weed control at 25 ppm": "76 to 100%"}
{"molecule": "CNc1nc(OCc2cc(OC)c(OC)c(OC)c2)ncc1F", "pest or weed control at 25 ppm": "0 to 25%"}
{"molecule": "NN(Cc1ccccc1Cl)c1nc(OCc2ccc(F)cc2)ncc1F", "pest or weed control at 25 ppm": "51 to 75%"}
{"molecule": "COCCCOc1ncc(F)c(/N=C/N(C)C)n1", "pest or weed control at 25 ppm": "51 to 75%"}
{"molecule": "COc1ncc(Oc2ncc(F)c(N)n2)cn1", "pest or weed control at 25 ppm": "0 to 25%"}

Problem: May I ask what pest or weed control at 25 ppm has been recorded for Nc1nc(OCc2cccs2)ncc1F ?
Result: 76 to 100%

----------
Exercise: for every item that follows, state its recorded pest or weed control at 25 ppm.
- Test system: Mycosphaerella graminicola; Anamorph: Septoria tritici; Bayer Code SEPTTR
- procedure-text: Leaf blotch of wheat, foliar fungicide treatment, one day protectant (1DP) or three day curative (3DC)
- Assay type: in vivo, Septoria tritici on wheat plants (variety Yuma)
- measurement-context: Zymoseptoria tritici, 24 h, one day protectant (1DP), 25 ppm, rating of percent disease control, read-out: SETTTR 1DP 25 ppm

{"molecule": "COc1cccc(C(=O)Oc2ncc(F)c(/N=C/N(C)C)n2)c1", "reported-property": "pest or weed control at 25 ppm", "observed": "76 to 100%"}
{"molecule": "CC[Si](CC)(CC)Nc1nc(OCc2ccn(C)n2)ncc1F", "reported-property": "pest or weed control at 25 ppm", "observed": "76 to 100%"}
{"molecule": "O=C(Nc1nc(OCc2ccc(F)cc2)ncc1F)OCCl", "reported-property": "pest or weed control at 25 ppm", "observed": "51 to 75%"}
{"molecule": "CC(C)(C)NNc1nc(OCc2ccc(F)cc2)ncc1F", "reported-property": "pest or weed control at 25 ppm", "observed": "0 to 25%"}
{"molecule": "COc1ccccc1COc1ncc(F)c(NCOCc2ccccc2)n1", "reported-property": "pest or weed control at 25 ppm", "observed": "51 to 75%"}

Batch lookup, pest or weed control at 25 ppm per entry.
1. CC(C)Oc1cccc(COc2ncc(F)c(N)n2)c1
2. CCc1ccccc1COc1ncc(F)c(N)n1
3. O=C(Nc1ccccc1F)Nc1nc(OCc2cccc(F)c2)ncc1F
4. COc1ccccc1COc1ncc(F)c(NC(=S)Nc2ccccc2F)n1
5. Cc1ccc(COc2ncc(F)c(NSc3ccccc3[N+](=O)[O-])n2)cc1

Result:
1: 76 to 100%; 2: 76 to 100%; 3: 0 to 25%; 4: 76 to 100%; 5: 76 to 100%

For every listed record, write down its pest or weed control at 25 ppm.
1. CC(C)=NNc1nc(OCc2ccc(F)cc2)ncc1F
2. Nc1nc(OCc2cscn2)ncc1F
3. Cn1ccc(COc2ncc(F)c(NSc3ccccc3[N+](=O)[O-])n2)n1
4. Cc1ccccc1C(C)Oc1ncc(F)c(N)n1 (stereo not drawn)
5. CC#CCOc1ncc(F)c(N)n1
6. COCCOC(=O)Nc1nc(OCc2ccc(F)cc2)ncc1F
7. Nc1nc(OS(=O)(=O)c2cccs2)ncc1F
8. CS(=O)(=O)c1ccc(COc2ncc(F)c(N)n2)cc1

Result:
0 to 25%
76 to 100%
76 to 100%
76 to 100%
0 to 25%
76 to 100%
76 to 100%
0 to 25%

Please give pest or weed control at 25 ppm, item by item, for the list that follows.
1. Nc1nc(OC(c2ccccc2)c2ccc(F)cc2)ncc1F (stereo not drawn)
2. O=[N+]([O-])c1ccccc1SNc1nc(OCc2cc(F)c(F)c(F)c2)ncc1F
3. COc1cccc(COc2ncc(F)c(NOC(C)C)n2)c1

Result:
1: 76 to 100%; 2: 76 to 100%; 3: 0 to 25%

# map each molecule to its pest or weed control at 25 ppm
1. CNC(=S)Nc1nc(OCc2ccc(C)cc2)ncc1F
2. CCOCCOc1cccc(COc2ncc(F)c(NC)n2)c1

Result:
1: 76 to 100%; 2: 0 to 25%

Take each entry in turn and give its pest or weed control at 25 ppm.
1. Cc1cc(Oc2ncc(F)c(N)n2)cc(C)n1
2. COc1cccc(COc2ncc(F)c(N)n2)c1F

Result:
1. 0 to 25%
2. 76 to 100%

For the 5 molecules below, give their pest or weed control at 25 ppm values.
1. Cc1cc(Cl)ccc1Oc1ncc(F)c(N)n1
2. COc1ccccc1COc1ncc(F)c(/N=C/N(C)C)n1
3. CCCNC(=O)Nc1nc(OCc2cccc(OC)c2)ncc1F
4. Nc1nc(OCc2ccc(F)cc2F)ncc1F
5. COc1ccc(Oc2ncc(F)c(NC(=O)Nc3ccsc3)n2)cc1

Result:
1. 0 to 25%
2. 76 to 100%
3. 0 to 25%
4. 76 to 100%
5. 0 to 25%

Batch lookup, pest or weed control at 25 ppm per entry.
1. CC(Oc1ncc(F)c(N)n1)c1ccc(Oc2ccccc2)cc1 (stereo not drawn)
2. CNc1nc(OCc2ccc(F)cc2)ncc1F
3. CC(C)COC(=O)Oc1ncc(F)c(/N=C/N(C)C)n1
4. C#CCOc1ncc(F)c(N)n1
5. COc1cc(F)c(COc2ncc(F)c(N)n2)cn1

Result:
1. 76 to 100%
2. 0 to 25%
3. 76 to 100%
4. 0 to 25%
5. 76 to 100%

Problem: API: value(readout=pest or weed control at 25 ppm, system=Mycosphaerella graminicola; Anamorph: Septoria tritici; Bayer Code SEPTTR) for record CN(C)/C=N/c1nc(OCc2cccc(N)c2)ncc1F
Result: 26 to 50%
